subject-of-test: T1, HLA-A*02:01 (peptide-receptive MHC class I monomer after UV cleavage of the UV-sensitive ligand) (human)
T1 construct: MHC monomers loaded by UV-ligand exchange and captured on streptavidin plates
assay-details: UV ligand-exchange ELISA; exchange yield grade (+ >=10%, ++ >=20%, +++ >=50%, ++++ >=75%)
endpoint-label: peptide exchange yield

Input line: I'd like to know its peptide exchange yield. The binder in question is SLLGNSPVL [SLLGNSPVL (SEQ ID NO: 51)]
Output line: ≥ 75%

Input line: Subsequent entry: ALKKHLTSV [ALKKHLTSV (SEQ ID NO: 22)]
Output line: 50 to 75%

Input line: Subsequent entry: GMAAEVPKV [GMAAEVPKV (SEQ ID NO: 192)]
Output line: 20 to 50%

Input line: Subsequent entry: YLLDTLLSL [YLLDTLLSL (SEQ ID NO: 111)]
Output line: 50 to 75%

Input line: Subsequent entry: FLIETGTLL [FLIETGTLL (SEQ ID NO: 222)]
Output line: 50 to 75%

Input line: Subsequent entry: YLGEEYPEV [YLGEEYPEV (SEQ ID NO: 73)]
Output line: 50 to 75%

Input line: Subsequent entry: KLINSQISL [KLINSQISL (SEQ ID NO: 292)]
Output line: 50 to 75%

Input line: Subsequent entry: TLQDSLEFI [TLQDSLEFI (SEQ ID NO: 172)]
Output line: ≥ 75%

Input line: Subsequent entry: YLLEQGAQV [YLLEQGAQV (SEQ ID NO: 282)]
Output line: ≥ 75%

Input line: Subsequent entry: ICAGHVPGV [ICAGHVPGV (SEQ ID NO: 148)]
Output line: 50 to 75%

Input line: Subsequent entry: FVIDSFEEL [FVIDSFEEL (SEQ ID NO: 113)]
Output line: 50 to 75%

Input line: Subsequent entry: GVIDPVPEV [GVIDPVPEV (SEQ ID NO: 226)]
Output line: 20 to 50%

Input line: Subsequent entry: KVLEFLAKV [KVLEFLAKV (SEQ ID NO: 157)]
Output line: 50 to 75%

Input line: Subsequent entry: TLLDVISAL [TLLDVISAL (SEQ ID NO: 171)]
Output line: ≥ 75%

Input line: Subsequent entry: SLFDGAVISTV [SLFDGAVISTV (SEQ ID NO: 164)]
Output line: 50 to 75%

Input line: Subsequent entry: GLFDNRSGLPEA [GLFDNRSGLPEA (SEQ ID NO: 88)]
Output line: 50 to 75%
